The following compounds are shown together with reported EC50 values.
Target: glutathione S-transferase (Schistosoma japonicum GST tag binding GSH beads)
Experiment: GST–glutathione bead interaction interference profiling – biochemical, multiplex beads, flow cytometry, profiling panel (AID 1769);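 also: target is a GST and green fluorescent protein fusion captured on glutathione beads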
Settings: flow cytometry fluorescence

See these solved cases before continuing.
Field: EC50 (glutathione S-transferase (Schistosoma japonicum GST tag binding GSH beads)). Entry: "N=c1oc2ccc3ccccc3c2cc1-c1nc(-c2ccccc2)cs1"
1.4 µM

Field: EC50 (glutathione S-transferase (Schistosoma japonicum GST tag binding GSH beads)). Entry: "O=c1[nH]c(N/N=C/c2ccc(O)cc2)nc2ccccc12"
7.68 µM

Field: EC50 (glutathione S-transferase (Schistosoma japonicum GST tag binding GSH beads)). Entry: "COc1cc(NC(=O)c2cccs2)c(OC)cc1NC(=O)CCC(=O)Nc1ccc2ncccc2c1"
0.481 µM

Field: EC50 (glutathione S-transferase (Schistosoma japonicum GST tag binding GSH beads)). Entry: "COc1cc(/C=N/NC(=O)CN(Cc2ccccc2)S(=O)(=O)c2ccc3c(c2)OCCO3)ccc1O"
20.3 µM

Field: EC50 (glutathione S-transferase (Schistosoma japonicum GST tag binding GSH beads)). Entry: "O=C(CNC(=O)Cc1ccccc1)N=Nc1c(O)n(Cc2ccc3c(c2)OCO3)c2ccccc12"
12 µM

Next:
Field: EC50 (glutathione S-transferase (Schistosoma japonicum GST tag binding GSH beads)). Entry: "Cc1ccc(-c2csc3nc4c5ccccc5c(NCCCN5CCOCC5)nn4c(=O)c23)cc1"
0.346 µM

Field: EC50 (glutathione S-transferase (Schistosoma japonicum GST tag binding GSH beads)). Entry: Nc1nc2c(c(=O)[nH]1)C(c1cccc3ccccc13)C1=C(N2)c2ccccc2C1=O (stereo not given)
2.59 µM

Field: EC50 (glutathione S-transferase (Schistosoma japonicum GST tag binding GSH beads)). Entry: "Fc1cccc(Nc2ncnc3[nH]ncc23)c1"
45.1 µM

Field: EC50 (glutathione S-transferase (Schistosoma japonicum GST tag binding GSH beads)). Entry: "COc1ccc(-c2c3c(nc4sc5c(=O)[nH]c(C)nc5c24)CCC3)cc1"
3.74 µM

Field: EC50 (glutathione S-transferase (Schistosoma japonicum GST tag binding GSH beads)). Entry: "CCOc1cc(/C=N/NC(=O)c2cc(-c3cccnc3)nc3ccccc23)ccc1O"
8.65 µM

====

Biological target: glutathione S-transferase (Schistosoma japonicum GST tag binding GSH beads)
Assay: GST–glutathione bead interaction interference profiling – biochemical, multiplex beads, flow cytometry, profiling panel (AID 1769);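 also: target is a GST and green fluorescent protein fusion captured on glutathione beads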
Details: flow cytometry fluorescence
The following compounds are shown together with reported EC50 values.

Could you tell me which EC50 is on file for "Cc1cc(C)cc(N2C(=O)NC(=O)/C(=C\C=C\c3ccco3)C2=O)c1" ?
4.38 µM

Could you tell me which EC50 is on file for "COc1cc2ccccc2cc1C(=O)NC(=S)Nc1cccc(C(=O)O)c1" ?
9.3 µM

Could you tell me which EC50 is on file for CC(C)(C)c1ccc(C(=O)CC(Sc2ccc(Cl)cc2)C(=O)O)cc1 (stereo not given) ?
3.51 µM

Next:
Could you tell me which EC50 is on file for "Cn1cccc1/C=C1\SC(=S)N(NC(=O)c2ccccc2Cl)C1=O" ?
51.7 µM

Could you tell me which EC50 is on file for "O=c1[nH]c(=O)c2nnc(N/N=C\c3ccc(O)cc3)nc2[nH]1" ?
3.79 µM

Could you tell me which EC50 is on file for "Oc1ccc(C2=Nn3c(nnc3-c3ccco3)SC2)cc1O" ?
1.29 µM

Could you tell me which EC50 is on file for "O=C(O)CC/C(=C\c1ccc(N2CCCC2)c([N+](=O)[O-])c1)c1nc2ccccc2s1" ?
37 µM

Could you tell me which EC50 is on file for "O=C(O)c1cc(-c2ccc(/C=C3\NC(=O)N(c4ccc(Cl)cc4)C3=O)o2)ccc1Cl" ?
11.8 µM

Could you tell me which EC50 is on file for Cc1sc2nc3c(SC(C)C(=O)O)cc(C(=O)c4ccccc4O)cn3c(=O)c2c1C (stereo not given) ?
92.7 µM

Could you tell me which EC50 is on file for "COc1cc(/C=C2/SC(=Nc3ccc(O)cc3)NC2=O)cc(OC)c1O" ?
0.974 µM
